# TEST SYSTEM: human CDK7/cycH/MAT1 (Homo sapiens (Human), UniProt P50613)
# Sequence (P50613 whole entry): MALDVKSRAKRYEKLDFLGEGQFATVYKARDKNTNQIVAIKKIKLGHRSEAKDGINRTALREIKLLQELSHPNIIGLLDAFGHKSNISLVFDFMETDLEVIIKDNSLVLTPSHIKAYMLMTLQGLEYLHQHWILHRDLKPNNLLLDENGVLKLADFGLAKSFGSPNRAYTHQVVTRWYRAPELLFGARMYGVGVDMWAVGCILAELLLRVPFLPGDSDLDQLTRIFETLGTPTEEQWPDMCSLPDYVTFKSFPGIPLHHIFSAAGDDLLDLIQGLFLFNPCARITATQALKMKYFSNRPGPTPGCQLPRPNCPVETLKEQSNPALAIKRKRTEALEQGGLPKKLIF
# Sequence (P51946 whole entry partner): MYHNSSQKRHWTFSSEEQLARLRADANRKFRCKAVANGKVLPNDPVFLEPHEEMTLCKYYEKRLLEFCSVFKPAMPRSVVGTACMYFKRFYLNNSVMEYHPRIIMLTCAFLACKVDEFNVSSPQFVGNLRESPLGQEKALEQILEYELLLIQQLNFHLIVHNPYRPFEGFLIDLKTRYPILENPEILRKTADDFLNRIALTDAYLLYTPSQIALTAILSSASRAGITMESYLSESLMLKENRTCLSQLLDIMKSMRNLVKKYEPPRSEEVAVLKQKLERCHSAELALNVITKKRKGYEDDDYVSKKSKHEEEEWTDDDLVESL
# Sequence (P51948 whole entry partner): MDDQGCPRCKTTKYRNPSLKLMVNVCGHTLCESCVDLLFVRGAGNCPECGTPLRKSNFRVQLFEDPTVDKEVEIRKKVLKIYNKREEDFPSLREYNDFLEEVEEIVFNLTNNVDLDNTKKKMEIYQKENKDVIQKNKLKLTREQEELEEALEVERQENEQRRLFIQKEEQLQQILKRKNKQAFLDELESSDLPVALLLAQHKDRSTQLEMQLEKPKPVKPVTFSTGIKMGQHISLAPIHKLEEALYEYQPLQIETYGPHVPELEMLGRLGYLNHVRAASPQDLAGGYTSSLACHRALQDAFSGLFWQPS
# ASSAY REMARKS: CDK7 IC50 (ADP-Glo kinase assay)
# Type: biochemical
# REPORTED CONDITIONS: CDK2 IC50 / CDK7 IC50 selectivity
MEASURED METRIC: Ratio CDK2/CDK7
Number, no unit, nothing else.

STRUCTURE STRING	TEST SYSTEM	MEASURED METRIC	NUMERIC READOUT
CCc1cnn2c(NCc3ccccc3F)cc(NC[C@H]3CCNC[C@@H]3O)nc12	human CDK7/cycH/MAT1 (Homo sapiens (Human), UniProt P50613)	Ratio CDK2/CDK7	49
CCc1cnn2c(NCc3cccc(C#N)c3)cc(NC[C@H]3CCNC[C@@H]3O)nc12	human CDK7/cycH/MAT1 (Homo sapiens (Human), UniProt P50613)	Ratio CDK2/CDK7	21
O[C@H]1CNCC[C@@H]1CNc1cc(NCc2ccccc2)n2ncc(C3CC3)c2n1	human CDK7/cycH/MAT1 (Homo sapiens (Human), UniProt P50613)	Ratio CDK2/CDK7	23

// Input: `CCc1cnn2c(NCc3cccc(C#N)c3)c(Cl)c(NC[C@H]3CCNC[C@@H]3O)nc12` . Output its Ratio CDK2/CDK7 only.
571
